target or system: VIPR2 (Homo sapiens)
Sequence (P41587 24-438): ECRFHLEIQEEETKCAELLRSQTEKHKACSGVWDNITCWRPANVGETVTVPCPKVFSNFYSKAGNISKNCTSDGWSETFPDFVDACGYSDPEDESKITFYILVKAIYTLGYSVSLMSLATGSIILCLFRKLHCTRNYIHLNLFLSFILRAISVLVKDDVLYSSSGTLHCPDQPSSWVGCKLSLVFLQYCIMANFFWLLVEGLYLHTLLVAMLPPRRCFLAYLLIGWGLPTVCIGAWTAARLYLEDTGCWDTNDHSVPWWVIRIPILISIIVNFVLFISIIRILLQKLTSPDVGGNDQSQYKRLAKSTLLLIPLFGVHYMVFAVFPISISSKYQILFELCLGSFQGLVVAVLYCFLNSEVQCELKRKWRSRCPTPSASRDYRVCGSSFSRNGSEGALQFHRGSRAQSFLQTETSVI
assay text: Inhibition of VIP-induced cAMP elevation (% Activity cAMP)
Assay type: cell-based
Design: expressed in transfected cells; host or cells: HEK293 cells transfected with VIPR2 in pCDNA3.1 (as described)
measurement parameters: 5 μM, Batch 3
endpoint name: inhibition at 5 µM (%)

O=C(O)c1ccc(S(=O)(=O)NC[C@@H](O)C[C@@H](Cc2ccccc2)C(=O)N[C@H]2c3ccccc3C[C@H]2O)cc1 26

P = CC(C)C(=O)Nc1ccc(S(=O)(=O)NC[C@@H](O)C[C@@H](Cc2ccccc2)C(=O)N[C@H]2c3ccccc3C[C@H]2O)cc1
Q = O=C(NCc1ccccc1)c1ccc(S(=O)(=O)NC[C@@H](O)C[C@@H](Cc2ccccc2)C(=O)N[C@H]2c3ccccc3C[C@H]2O)cc1
Q) P or Q : whose inhibition at 5 µM is greater? Provide the label of your selected option as the answer.
A) Q
